# run.parameters: 318.41 K; 101.33 kPa; Liquid; Pulse-echo method
Reported values of speed of sound for individual entries
Reply numerically in m/s, unit not repeated.

The examples below pair each entry with its known result.
# compound, speed of sound [m/s]
data = [
    ("CC(C)C(=O)[O-].C[NH2+]CCO [2-hydroxy-N-methylethanaminium isobutyrate]", 1554.1),
    ("CCCCC(=O)[O-].C[NH2+]CCO [2-hydroxy-N-methylethanaminium pentanoate]", 1486.1),
]

Exercise: Looking for the measured speed of sound of C[NH2+]CCO.O=C[O-] [2-hydroxy-N-methylethanaminium formate] , can you help?
Solution: 1775.8

Exercise: For CCCC(=O)[O-].C[NH2+]CCO [N-methyl-2-hydroxyethylammonium butanoate] , what is its reported speed of sound?
Solution: 1551.1

Exercise: Requested field: speed of sound. Item: CCC(=O)[O-].C[NH2+]CCO [2-hydroxy-N-methylethanaminium propionate]
Solution: 1630.2

Each recorded value in this set is attributed to the NIST ThermoML archive (doi:10.1021/je900550v).
